Reference source: patent US8435978B2

- system-tested: human B1R receptor (Homo sapiens)
- Construct: host or cells: CHO K1 cells (Chinese hamster ovary), stably transfected
- Sequence (P46663 whole entry): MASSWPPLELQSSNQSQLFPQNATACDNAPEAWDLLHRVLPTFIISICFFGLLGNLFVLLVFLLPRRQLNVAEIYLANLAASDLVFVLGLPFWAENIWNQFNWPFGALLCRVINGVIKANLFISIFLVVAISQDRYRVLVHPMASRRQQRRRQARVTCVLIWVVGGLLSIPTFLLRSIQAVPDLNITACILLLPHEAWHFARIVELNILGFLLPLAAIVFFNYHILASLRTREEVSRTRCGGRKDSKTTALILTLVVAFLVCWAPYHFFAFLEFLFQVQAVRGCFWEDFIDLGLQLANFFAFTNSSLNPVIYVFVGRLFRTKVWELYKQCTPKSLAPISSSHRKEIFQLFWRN
- experiment-notes: Functional study on the bradykinin receptor 1 (B1R), FLIPR Ca2+ assay, hB1R cells
- Format: cell-based
- condition-info: CHO-K1, test substance 10 μM, agonist Lys-Des-Arg9-bradykinin 0.5 nM, % inhibition compared with the maximum achievable inhibition, read-out: B1R Antagonism, human [10 μM] % Inhibition
Where a name gives a salt, the structure may show the parent alone.
reported-metric: inhibition at 10 µM

>>> print(df.to_string())
                                   compound  value_observed
0  CN1CCC(N2CCN(C(=O)COCC3CCCN3S(=O)(=O)c3c(Cl)cc(C(F)(F)F)cc3Cl)CC2)CC1 (stereo not shown) [Example 570]           97.7%
1  O=C(COCC1CCCCN1S(=O)(=O)c1c(Cl)cccc1Cl)N1CCC(N2CCCC2)CC1 (stereo not shown) [Example 443]            104%
2  O=C(COCC1CCCN1S(=O)(=O)c1c(Cl)cccc1Cl)N1CCN(CCc2ccccc2)CC1 (stereo not shown) [Example 326]            104%
3  Cc1cc(F)cc(C)c1S(=O)(=O)N1CCCCC1COCC(=O)N1CCN(C2CCN(C)CC2)CC1 (stereo not shown) [Example 169, dihydrochloride]            100%
4  COc1cc(C)c(S(=O)(=O)N2CCCCC2COCC(=O)N2CCC(Oc3cccnc3)CC2)c(C)c1 (stereo not shown) [Example 165]           97.1%
5  COc1cc(C)c(S(=O)(=O)N2CCCCC2COCC(=O)N2CCN(CCc3ccccc3)CC2)c(C)c1 (stereo not shown) [Example 373]            104%
6  Cc1cccc(Cl)c1S(=O)(=O)N1CCC[C@H]1COCC(=O)N1CCC(CCN2CCCC2)CC1 [Example 161, hydrochloride]           98.5%
